- TARGET OR SYSTEM: TRPV1 (Homo sapiens)
- Sequence (Q8NER1 whole entry, species assumed): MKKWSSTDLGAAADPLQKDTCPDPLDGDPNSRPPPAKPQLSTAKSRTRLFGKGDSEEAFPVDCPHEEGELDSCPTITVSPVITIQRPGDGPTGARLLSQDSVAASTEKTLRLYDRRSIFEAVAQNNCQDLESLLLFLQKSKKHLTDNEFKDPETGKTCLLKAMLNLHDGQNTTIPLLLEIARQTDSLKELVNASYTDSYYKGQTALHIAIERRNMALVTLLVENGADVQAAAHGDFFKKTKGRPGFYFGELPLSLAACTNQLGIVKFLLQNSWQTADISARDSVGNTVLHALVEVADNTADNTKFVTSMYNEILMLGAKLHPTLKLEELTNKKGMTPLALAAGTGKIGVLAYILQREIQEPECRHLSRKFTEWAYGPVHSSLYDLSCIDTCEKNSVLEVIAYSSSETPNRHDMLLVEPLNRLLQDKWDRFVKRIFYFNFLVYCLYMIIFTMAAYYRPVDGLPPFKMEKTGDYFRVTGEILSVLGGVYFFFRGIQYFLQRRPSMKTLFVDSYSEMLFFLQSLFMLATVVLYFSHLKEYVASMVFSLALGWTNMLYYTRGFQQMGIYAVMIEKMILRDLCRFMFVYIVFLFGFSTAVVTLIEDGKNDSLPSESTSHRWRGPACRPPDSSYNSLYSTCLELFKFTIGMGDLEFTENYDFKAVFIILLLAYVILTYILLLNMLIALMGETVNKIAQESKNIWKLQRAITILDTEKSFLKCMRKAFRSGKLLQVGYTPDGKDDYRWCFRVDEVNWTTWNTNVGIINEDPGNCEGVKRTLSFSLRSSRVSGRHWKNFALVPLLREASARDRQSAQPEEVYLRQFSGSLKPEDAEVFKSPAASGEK
- TEST: Scoville Heat Unit (SHU) as a measure of TRPV1 activation
- CONDITIONS: pure TRPV1 agonist, per mg
I'd appreciate it if you could supply SHU of pure Agonist values for the items below.

Example results:
COMPOUND	TARGET OR SYSTEM	RESULT
C/C=C/C=C/C=C\CC/C=C/C=C/C(=O)NCC(C)C [γ-sanshool]	TRPV1 (Homo sapiens)	110,000 SHU
C/C=C/C=C/C=C/CC/C=C/C=C/C(=O)NCC(C)C [δ-sanshool]	TRPV1 (Homo sapiens)	110,000 SHU
C/C=C/C=C/C=C/CC/C=C/C(=O)NCC(C)(C)O [β-hydroxy-sanshool]	TRPV1 (Homo sapiens)	13,000 SHU
COc1cc(CNC(=O)CCCC/C=C/C(C)C)ccc1O [capsaicin]	TRPV1 (Homo sapiens)	16,000,000 SHU
C/C=C/C=C/C=C/CC/C=C/C(=O)NCC(C)C [β-sanshool]	TRPV1 (Homo sapiens)	70,000 SHU
CCCCC[C@H](O)CC(=O)CCc1ccc(O)c(OC)c1 [Formulation 6-gingerol, 6-gingerol]	TRPV1 (Homo sapiens)	60,000 SHU

List the reported SHU of pure Agonist of each compound below.
1. C/C=C/C=C/C=C\CC/C=C/C(=O)NCC(C)(C)O [α-hydroxy-sanshool]
2. C/C=C/C=C/C=C\CC/C=C/C(=O)NCC(C)C [α-sanshool]
3. CCCCC/C=C/C(=O)CCc1ccc(O)c(OC)c1 [Formulation 6-shogaol, 6-shogaol]

## Result
1. 26,000 SHU
2. 80,000 SHU
3. 160,000 SHU
